# system.name: T1, human MAdCAM expressed on cells (human, UniProt Q13477 19-382)
# T1 construct: whole, on cells; also called MADCAM1
# T1 sequence (looked up): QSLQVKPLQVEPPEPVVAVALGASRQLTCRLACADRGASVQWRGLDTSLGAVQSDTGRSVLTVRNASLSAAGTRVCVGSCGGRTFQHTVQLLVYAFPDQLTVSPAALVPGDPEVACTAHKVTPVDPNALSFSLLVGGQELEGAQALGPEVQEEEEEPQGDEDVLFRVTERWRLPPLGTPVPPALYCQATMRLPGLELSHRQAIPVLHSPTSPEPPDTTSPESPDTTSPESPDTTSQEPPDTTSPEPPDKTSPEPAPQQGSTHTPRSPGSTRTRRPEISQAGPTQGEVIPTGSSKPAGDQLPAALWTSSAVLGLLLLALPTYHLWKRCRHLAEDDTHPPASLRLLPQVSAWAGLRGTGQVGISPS
# assay.notes: cell binding
readout.label: binding result

binder	readout.label	meas.value
MAdCAM Antibody Table 1 Clone 51 (scFv) scFv: EVQLLESGGGLVQPGGSLRLSCAASGFTFNNYGMNWVRQAPGKGLEWVSRINSDGSSTSYADSVKGRFTISRDNSKNTLYLQMNSLRAEDTAVYYCARGAYYYYYMDVWGQGTLVTVSSGGGGSGGGGSGGGGSGGGGSEIVMTQSPATLSVSPGERATLSCRASQSVSGSYLAWYQQKPGQAPRLLIYATSSRASGIPARFSGSGSGTEFTLTISSLQSEDFAVYYCQQYYSGLTFGQGTKVEIK	binding result	binds
MAdCAM Antibody Table 1 Clone 36 (scFv) scFv: QVQLVQSGAEVKKPGASVKVSCKASGYTFTGHYMHWVRQAPGQGLEWMGIINPSGGSTSYAQKFQGRVTMTRDTSTSTVYMELSSLRSEDTAVYYCARDTGYSYGRYYYYGMDVWGQGTTVTVSSGGGGSGGGGSGGGGSGGGGSDIQMTQSPSSLSASVGDRVTITCRASQSIGRWLAWYQQKPGKAPKLLIYDASNLQSGVPSRFSGSGSGTDFTLTISSLQPEDFATYYCQQSYSIPITFGGGTKVEIK	binding result	binds
